Test system: Human immunodeficiency virus 1
Assay: Antiviral activity against X4 tropic HIV-1 clone pNL4-3 infected in H9 cells assessed as reduction in p24 antigen after 4 days by ELISA
Format: functional, organism-based
Conditions: Human immunodeficiency virus 1, pNL4-3, H9, 96 h
QUANTITY_NAME: log10(IC50) (log10 of the value in µM)
Hey, these are logged values: log10 of IC50, µM being the unit before logging.

Looking up CCN(CC)c1ccc(/C=C(\C#N)c2nc3cc(C(F)(F)F)ccc3[nH]2)cc1 , I found its log10(IC50) recorded as 0.05

Looking up CCN(CC)c1ccc(/C=C(\C#N)c2nc3cccnc3[nH]2)cc1 , I found its log10(IC50) recorded as 0.55

Looking up CCCN(CCC)c1ccc(/C=C(\C#N)c2nc3ccccc3[nH]2)cc1 , I found its log10(IC50) recorded as 0.04

Looking up COc1cc(/C=C(\C#N)c2nc3ccccc3[nH]2)ccc1O , I found its log10(IC50) recorded as -1.24

Looking up CCN(CC)c1ccc(/C=C(\C#N)c2nc3cc(C(C)(C)C)ccc3[nH]2)cc1 , I found its log10(IC50) recorded as 0.02

Looking up CCN(CC)c1ccc(/C=C(\C#N)c2nc3cc(C)c(C)cc3[nH]2)cc1 , I found its log10(IC50) recorded as 0.21
